# inhibition at 10 µM per record follows
# assay_system: human B-Raf (Homo sapiens)
# Construct: Flag; GST; made in house; host or cells: Sf9 insect cells (B-Raf); E. coli (MEK1-GST)
# Sequence (P15056 whole entry): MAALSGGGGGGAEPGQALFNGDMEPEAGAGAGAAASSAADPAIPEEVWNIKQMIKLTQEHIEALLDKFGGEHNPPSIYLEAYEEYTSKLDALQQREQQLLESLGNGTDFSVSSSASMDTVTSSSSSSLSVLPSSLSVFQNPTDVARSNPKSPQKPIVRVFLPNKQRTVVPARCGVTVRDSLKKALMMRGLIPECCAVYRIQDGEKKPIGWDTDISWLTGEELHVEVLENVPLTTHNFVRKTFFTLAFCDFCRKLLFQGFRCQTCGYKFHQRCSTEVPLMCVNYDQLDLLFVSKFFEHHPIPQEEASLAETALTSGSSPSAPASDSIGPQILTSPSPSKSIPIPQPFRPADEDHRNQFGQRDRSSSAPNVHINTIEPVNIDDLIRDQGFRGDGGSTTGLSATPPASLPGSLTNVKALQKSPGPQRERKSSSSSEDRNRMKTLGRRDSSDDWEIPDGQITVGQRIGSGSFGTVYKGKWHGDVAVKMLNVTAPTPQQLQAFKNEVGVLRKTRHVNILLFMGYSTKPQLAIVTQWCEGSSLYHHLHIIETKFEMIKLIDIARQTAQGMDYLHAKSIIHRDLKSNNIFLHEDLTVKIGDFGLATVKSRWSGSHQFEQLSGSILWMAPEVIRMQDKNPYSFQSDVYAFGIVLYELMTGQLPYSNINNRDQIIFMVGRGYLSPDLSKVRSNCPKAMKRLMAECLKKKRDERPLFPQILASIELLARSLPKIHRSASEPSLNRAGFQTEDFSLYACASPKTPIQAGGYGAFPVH
# assay_name: B-Raf Kinase to MEK1 ELISA
# Assay type: biochemical
# measurement_setup: read-out: % Inhib./10 uM
Write the number in % without appending the unit.

- molecule_smiles: "CCOC(=O)c1cnn2c(-c3cccc(NC(=O)c4ccc(F)cc4C(F)(F)F)c3)ccnc12"
  unit_name: "%"
  result: 0

Tell me the measured inhibition at 10 µM of CCOC(=O)c1cnn2c(-c3cccc(NC(=O)Nc4ccc(Cl)cc4C)c3)ccnc12 , please.
33

###

# assay_system: human B-Raf (Homo sapiens)
# Construct: Flag; GST; made in house; host or cells: Sf9 insect cells (B-Raf); E. coli (MEK1-GST)
# assay_name: B-Raf Kinase to MEK1 ELISA
# Type: biochemical
# measurement_setup: read-out: % Inhib./10 uM
measured_metric: inhibition at 10 µM (%)
Write the number in % without appending the unit.

Recorded inhibition at 10 µM, per entry:
- compound: "CC(C)(C)OC(=O)NC1CCN(c2cc3nccc(-c4cccc(NC(=O)c5cccc(C(F)(F)F)c5)c4)n3n2)C1 (stereo not shown)"
  measured_metric: "inhibition at 10 µM"
  unit_name: "%"
  result: 22
- compound: "CCOC(=O)c1cnn2c(-c3cccc(NC(=O)c4cccc(C#N)c4)c3)ccnc12"
  measured_metric: "inhibition at 10 µM"
  unit_name: "%"
  result: 27
- compound: "COC(=O)c1cccc(-c2cc3nccc(-c4cccc(NC(=O)c5cccc(C(F)(F)F)c5)c4)n3n2)c1"
  measured_metric: "inhibition at 10 µM"
  unit_name: "%"
  result: 32

Tell me the measured inhibition at 10 µM of CC(O)c1ccccc1-c1cnn2c(-c3cccc(NC(=O)c4cccc(C(F)(F)F)c4)c3)ccnc12 (stereo not shown) , please.
80

Tell me the measured inhibition at 10 µM of COCCCNC(=O)c1cnn2c(-c3cccc(NC(=O)Nc4ccc(Cl)c(C(F)(F)F)c4)c3)ccnc12 , please.
92

Tell me the measured inhibition at 10 µM of O=C(Nc1cccc(-c2ccnc3c(-c4ccncc4)cnn23)c1)c1ccc(Cl)c(C(F)(F)F)c1 , please.
60

Tell me the measured inhibition at 10 µM of CCOC(=O)c1cnn2c(-c3cccc(NC(=O)Nc4ccc(SC)cc4)c3)ccnc12 , please.
0

###

# inhibition at 10 µM per record follows
# assay_system: human B-Raf (Homo sapiens)
# Construct: Flag; GST; made in house; host or cells: Sf9 insect cells (B-Raf); E. coli (MEK1-GST)
# assay_name: B-Raf Kinase to MEK1 ELISA
# Type: biochemical
# measurement_setup: read-out: % Inhib./10 uM
Write the number in % without appending the unit.

- compound: "CCOC(=O)c1cnn2c(-c3cccc(NC(=O)c4cccc(C(F)(F)F)c4)c3)c(C)cnc12 [Example 176]"
  unit_name: "%"
  result: 86
- compound: "O=C(Nc1cccc(-c2ccnc3c(-c4cccnc4)cnn23)c1)Nc1ccc(Cl)c(C(F)(F)F)c1 [Example 174]"
  unit_name: "%"
  result: 96
- compound: "O=C(Nc1ccc(F)c(-c2ccnc3ccnn23)c1)c1cccc(C(F)(F)F)c1 [Example 318]"
  unit_name: "%"
  result: 59

Shift focus to the following entry.
Kindly state the measured inhibition at 10 µM obtained for O=C(Nc1cccc(-c2ccnc3c(C(=O)NCCCn4ccnc4)cnn23)c1)c1cccc(C(F)(F)F)c1 [Example 55] with human B-Raf (Homo sapiens).
70

All figures here come from patent US20070219186A1.
